Test system: Septoria tritici
Assay: Test D: wheat leaf blotch, preventive spray on wheat seedlings, disease rating
Format: in vivo
Conditions: 200 ppm, 100 = 100% disease control, 0 = no control relative to controls
Endpoint name: Percentage Disease Control, Test D (%)
Kindly answer with a numeric value in %, unit omitted.

Q: Look up Percentage Disease Control, Test D: COC(=O)NCc1cc(-c2c[nH]nn2)ccc1Cl
Result: 30

Q: Can you share its Percentage Disease Control, Test D? I mean this compound: CCCn1nc(C(F)(F)F)cc1-c1ccc(Cl)c(CNC(=O)OC)c1
Result: 95

Q: // Percentage Disease Control, Test D lookup, key: COC(=O)NCc1cc(-c2cn(Cc3ccc(C)cc3)nn2)ccc1Cl
Result: 99

Q: What Percentage Disease Control, Test D value was documented for this compound, COC(=O)NCc1cc(-c2ccnc(Cl)n2)ccc1Cl ?
Result: 96

Q: Need Percentage Disease Control, Test D, item COC(=O)NCc1cc(-c2ccnn2-c2ccccc2)ccc1Cl
Result: 96

Q: Returns the measured Percentage Disease Control, Test D for the input compound. Input: COC(=O)NCc1cc(-c2ccnc(-c3csc(C)n3)n2)ccc1Cl
Result: 13

Q: Using the record for COC(=O)NCc1cc(-c2cc(C(F)(F)F)nn2C)ccc1Cl , report its Percentage Disease Control, Test D.
Result: 98

Q: // returns reported Percentage Disease Control, Test D for input COC(=O)NCc1cc(-c2ccnc(C(F)(F)F)n2)ccc1Cl
Result: 77

Q: Fill blank: measured Percentage Disease Control, Test D of the compound COC(=O)NCc1cc(-c2cn[nH]c2)ccc1Cl is ____.
Result: 53
